molecular target: Neu5Ac(a2-3)Gal(b1-4)[Fuc(a1-3)]GlcNAc6S; assay: glycan array binding signal (z-score within array); higher = stronger binding; details: glycan notation: IUPAC condensed, linker removed
This is one part of a sample in which the strongest signals are shown more often than they occur.
measure-name: glycan array binding signal (z-score)
// keep it numeric: no unit symbol after the value

KISKRILTGKK [NK11 (Sus scrofa)] | 3.52

IN: glycan array binding signal (z-score) lookup needed for Langerin K299A/K313A (Homo sapiens), Q9UJ71 (protein) STLNAQIPELKSDLEKASALNTKIRALQGSLENMSKLLKRQNDILQVVSQGWKYFKGNFYYFSLIPKTWYSAEQFCVSRNSHLTSVTSESEQEFLYKTAGGLIYWIGLTKAGMEGDWSWVDDTPFNKVQSARFWIPGEPNNAGNNEHCGNIAAPSLQAWNDAPCDATFLFICKRPYVPSEP , thanks.
OUT: 0.192

IN: How about Agalectin (Anopheles gambiae) (protein) MSNRPFTAKFPRYPENGDEVFIRGKLKDDAKSFSVNFCLPRPAQVAEHQTPPYIALHFKTIYDERDDTSRVVLNWKNLQWQQEEVLDNYWHVDRSQTFRVVFRLHEDCIKVFVNSVDHPPDYQFPVQLPLDQIESIELWDDVEHVEEISFRYDNGNSY ?
OUT: 3.86
